# SUBJECT_OF_TEST: vanilloid receptor 1 (VR1/TRPV1 receptor) (Homo sapiens)
# Construct: expressed in transfected cells; host or cells: CHO K1
# Sequence (Q8NER1 whole entry): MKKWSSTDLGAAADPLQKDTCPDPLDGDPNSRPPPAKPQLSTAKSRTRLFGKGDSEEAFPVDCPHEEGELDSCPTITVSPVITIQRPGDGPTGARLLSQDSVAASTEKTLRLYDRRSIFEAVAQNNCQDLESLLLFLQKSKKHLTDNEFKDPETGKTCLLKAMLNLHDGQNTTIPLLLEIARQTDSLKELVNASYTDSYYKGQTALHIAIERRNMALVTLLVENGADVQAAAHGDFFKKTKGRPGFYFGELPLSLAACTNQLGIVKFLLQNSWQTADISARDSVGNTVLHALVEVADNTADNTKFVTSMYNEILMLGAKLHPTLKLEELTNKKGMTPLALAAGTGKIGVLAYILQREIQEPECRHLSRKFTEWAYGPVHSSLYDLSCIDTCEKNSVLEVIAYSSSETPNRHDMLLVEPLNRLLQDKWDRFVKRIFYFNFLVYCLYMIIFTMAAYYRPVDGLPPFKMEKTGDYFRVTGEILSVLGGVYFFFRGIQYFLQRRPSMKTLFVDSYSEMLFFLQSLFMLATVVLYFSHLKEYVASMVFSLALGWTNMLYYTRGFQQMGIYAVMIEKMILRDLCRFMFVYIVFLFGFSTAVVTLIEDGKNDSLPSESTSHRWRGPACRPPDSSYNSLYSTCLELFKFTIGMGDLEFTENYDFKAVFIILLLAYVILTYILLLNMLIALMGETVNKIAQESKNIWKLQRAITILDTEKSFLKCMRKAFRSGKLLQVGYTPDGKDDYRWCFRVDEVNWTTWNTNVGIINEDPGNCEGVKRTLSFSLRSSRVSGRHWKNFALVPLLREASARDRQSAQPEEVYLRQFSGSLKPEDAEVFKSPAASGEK
# TEST_PROTOCOL: Functional testing on the vanilloid receptor 1 (VR1/TRPV1): FLIPR Ca2+ influx assay, displacement of capsaicin
# Assay type: cell-based, human being
# RUN_PARAMETERS: 5 μM compound; capsaicin (Cap); human being; read-out: inhibition (as a percentage) at the concentration after @, Cap
QUANTITY: inhibition at 5 µM (%)
Numbers only, in %.

- MOLECULE: "CS(=O)(=O)Nc1ccc(NC(=O)NCc2cc(C(F)(F)F)nn2-c2cccc(Cl)c2)cn1"
  SUBJECT_OF_TEST: "vanilloid receptor 1 (VR1/TRPV1 receptor) (Homo sapiens)"
  inhibition at 5 µM, %: 30
- MOLECULE: "COCCOc1ccc(NC(=O)NCc2cc(C(C)(C)C)nn2-c2cccc(Cl)c2)cn1"
  SUBJECT_OF_TEST: "vanilloid receptor 1 (VR1/TRPV1 receptor) (Homo sapiens)"
  inhibition at 5 µM, %: 83
- MOLECULE: "CC(C(=O)NCc1cc(C(F)(F)F)nn1-c1cccc(Cl)c1)c1ccccn1 (centres unmarked)"
  SUBJECT_OF_TEST: "vanilloid receptor 1 (VR1/TRPV1 receptor) (Homo sapiens)"
  inhibition at 5 µM, %: 35
- MOLECULE: "Cc1nc(CO)ccc1NC(=O)NCc1cc(C(F)(F)F)nn1-c1cccc(Cl)c1"
  SUBJECT_OF_TEST: "vanilloid receptor 1 (VR1/TRPV1 receptor) (Homo sapiens)"
  inhibition at 5 µM, %: 51

Batch request: inhibition at 5 µM for each of the following molecules.
1. CC(C(=O)NCc1cc(C(F)(F)F)nn1-c1cccc(Cl)c1)c1ccc(C(=O)Nc2ccc(C(F)(F)F)cc2)nc1 (centres unmarked)
2. CN(CCO)Cc1ccc(NC(=O)NCc2cc(C(F)(F)F)nn2-c2cccc(Cl)c2)cn1
3. O=C(NCc1cc(C(F)(F)F)nn1-c1cccc(Cl)c1)Nc1ccccn1
4. COCCN(C)c1ccc(C(C)C(=O)NCc2cc(C(F)(F)F)nn2-c2cccc(Cl)c2)cn1 (centres unmarked)

OUT:
24
22
29
55
